experiment: Protein binding in plasma; assay type: ADME, cell-free; settings: read-out: PPB

{"columns": ["Smi", "fraction unbound"],
 "data": [
  ["Nc1nc2ccc(-c3cncc(NS(=O)(=O)c4ccc(Cl)cc4)c3)cn2n1", "< 0.01"]
]}

====

assay: Clearance in rat at 1 mg/kg, iv and 5 mg/kg, po; format: ADME, organism-based; settings: in vivo

{"columns": ["Smi", "clearance"],
 "data": [
  ["CC(C)(C)NS(=O)(=O)c1cncc(-c2ccc3nc(N)nn3c2)c1", "11.5 mL/min/kg"]
]}

====

target: Phosphatidylinositol 4,5-bisphosphate 3-kinase catalytic subunit delta isoform (Homo sapiens, UniProt O00329); experiment: Inhibition of PI3Kdelta by high throughput chemoproteomics binding assay
Sequence (O00329 whole entry, canonical isoform): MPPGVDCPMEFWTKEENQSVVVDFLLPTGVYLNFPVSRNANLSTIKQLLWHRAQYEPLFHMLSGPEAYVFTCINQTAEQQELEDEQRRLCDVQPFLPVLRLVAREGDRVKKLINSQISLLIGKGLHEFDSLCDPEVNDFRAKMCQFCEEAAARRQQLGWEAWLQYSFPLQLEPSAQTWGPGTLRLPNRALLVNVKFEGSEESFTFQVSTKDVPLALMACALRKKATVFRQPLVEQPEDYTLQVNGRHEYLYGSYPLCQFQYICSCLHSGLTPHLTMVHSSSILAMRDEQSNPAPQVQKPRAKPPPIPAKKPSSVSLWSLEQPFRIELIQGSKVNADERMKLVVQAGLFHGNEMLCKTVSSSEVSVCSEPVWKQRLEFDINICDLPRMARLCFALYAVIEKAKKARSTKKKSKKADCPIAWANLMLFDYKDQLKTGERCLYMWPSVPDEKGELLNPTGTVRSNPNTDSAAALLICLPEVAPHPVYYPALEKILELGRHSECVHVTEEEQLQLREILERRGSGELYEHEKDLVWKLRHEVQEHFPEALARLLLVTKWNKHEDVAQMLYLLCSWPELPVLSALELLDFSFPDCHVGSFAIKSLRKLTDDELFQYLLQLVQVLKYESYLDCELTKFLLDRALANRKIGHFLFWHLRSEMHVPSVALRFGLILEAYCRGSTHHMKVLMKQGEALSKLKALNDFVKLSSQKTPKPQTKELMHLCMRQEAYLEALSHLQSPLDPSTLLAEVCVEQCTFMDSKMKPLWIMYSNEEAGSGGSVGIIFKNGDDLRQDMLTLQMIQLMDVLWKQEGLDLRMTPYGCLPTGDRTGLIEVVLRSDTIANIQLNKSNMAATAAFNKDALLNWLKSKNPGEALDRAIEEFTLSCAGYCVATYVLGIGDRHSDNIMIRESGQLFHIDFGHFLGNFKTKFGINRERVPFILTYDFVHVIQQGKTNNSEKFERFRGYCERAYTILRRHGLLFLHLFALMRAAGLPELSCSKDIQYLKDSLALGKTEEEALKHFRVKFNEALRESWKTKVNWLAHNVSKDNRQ
The compounds listed here are annotated with their IC50.

{"columns": ["Smi", "IC50"],
 "data": [
  ["CC(=O)Nc1nc2ccc(-c3cncc(S(C)(=O)=O)c3)c(C)n2n1", "> 39.8 µM"],
  ["CS(=O)(=O)Nc1cccc(-c2ccc3nc(NC(=O)C4CCCCC4)nn3c2)c1", "0.501 µM"],
  ["CC(=O)Nc1nc2ccc(-c3cccnc3)cn2n1", "> 31.6 µM"],
  ["CC(C)(C)S(=O)(=O)c1cncc(-c2ccc3nc(N)nn3c2)c1", "3.16 µM"],
  ["CS(=O)(=O)c1cncc(-c2cc(Cl)c3nc(N)nn3c2)c1", "> 100 µM"],
  ["CC(=O)Nc1nc2ccc(-c3sc(C)nc3C)cn2n1", "> 100 µM"],
  ["CC(=O)Nc1nc2ccc(-c3cnn(C)c3)cn2n1", "> 100 µM"],
  ["CNC(=O)c1cccc(-c2ccc3nc(NC(C)=O)nn3c2)c1", "> 100 µM"],
  ["COc1ccc(-c2ccc3nc(NC(C)=O)nn3c2)cc1OC", "2 µM"],
  ["CC(=O)Nc1nc2ccc(-c3cccc(NS(C)(=O)=O)c3)cn2n1", "5.01 µM"],
  ["COc1cncc(-c2ccc3nc(NC(C)=O)nn3c2)c1", "> 10 µM"]
]}

====

Ratio IC50: recorded values
organism: Homo sapiens; test: Selectivity ratio of IC50 for PI3Kdelta to IC50 for PI3Kgamma

{"columns": ["Smi", "Ratio IC50"],
 "data": [
  ["CC(C)(C)NS(=O)(=O)c1cncc(-c2cc(F)c3nc(N)nn3c2)c1", 100],
  ["COc1ccccc1-c1ccc2nc(NC(C)=O)nn2c1", 5],
  ["CC(=O)Nc1nc2ccc(-c3cccnc3)cn2n1", "> 60"],
  ["CC(=O)Nc1nc2ccc(-c3cc(C)c(O)c(C)c3)cn2n1", 5]
]}

====

Recorded IC50 by entry
molecular target: Phosphatidylinositol 4,5-bisphosphate 3-kinase catalytic subunit gamma isoform (Homo sapiens, UniProt P48736); assay: Inhibition of PI3Kgamma by high throughput chemoproteomics binding assay
Sequence (P48736 whole entry, canonical isoform): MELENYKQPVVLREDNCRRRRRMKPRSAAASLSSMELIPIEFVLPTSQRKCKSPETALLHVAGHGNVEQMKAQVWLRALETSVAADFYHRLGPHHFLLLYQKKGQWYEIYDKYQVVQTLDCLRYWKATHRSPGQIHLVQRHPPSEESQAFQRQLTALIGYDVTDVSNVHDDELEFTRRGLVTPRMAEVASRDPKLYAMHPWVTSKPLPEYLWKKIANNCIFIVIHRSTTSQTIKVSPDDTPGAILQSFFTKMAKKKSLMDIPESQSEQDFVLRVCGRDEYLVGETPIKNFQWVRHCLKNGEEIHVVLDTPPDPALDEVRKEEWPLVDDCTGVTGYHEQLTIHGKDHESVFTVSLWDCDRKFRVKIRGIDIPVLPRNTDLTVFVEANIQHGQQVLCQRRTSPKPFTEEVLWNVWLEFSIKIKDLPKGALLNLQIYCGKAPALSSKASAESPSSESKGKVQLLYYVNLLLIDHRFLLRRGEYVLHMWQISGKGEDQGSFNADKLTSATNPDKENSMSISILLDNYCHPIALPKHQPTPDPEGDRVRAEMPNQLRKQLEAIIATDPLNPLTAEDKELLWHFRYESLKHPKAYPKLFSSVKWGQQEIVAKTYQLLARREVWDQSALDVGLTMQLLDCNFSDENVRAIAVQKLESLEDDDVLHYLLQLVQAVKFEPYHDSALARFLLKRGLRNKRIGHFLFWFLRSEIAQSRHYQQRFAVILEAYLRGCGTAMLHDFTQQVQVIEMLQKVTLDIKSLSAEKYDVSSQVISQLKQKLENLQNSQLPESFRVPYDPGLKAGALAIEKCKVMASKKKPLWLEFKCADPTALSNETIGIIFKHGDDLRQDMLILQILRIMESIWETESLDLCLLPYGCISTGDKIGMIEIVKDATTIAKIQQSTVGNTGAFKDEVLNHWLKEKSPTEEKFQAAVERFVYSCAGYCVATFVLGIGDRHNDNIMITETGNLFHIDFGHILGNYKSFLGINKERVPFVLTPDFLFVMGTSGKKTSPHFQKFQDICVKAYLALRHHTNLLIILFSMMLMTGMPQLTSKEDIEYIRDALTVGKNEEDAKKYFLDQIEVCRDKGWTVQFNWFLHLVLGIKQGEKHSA

{"columns": ["Smi", "Comparator", "IC50 [nM]"],
 "data": [
  ["CC(=O)Nc1nc2c(F)cc(-c3cncc(S(C)(=O)=O)c3)cn2n1", "=", 126],
  ["CNc1nc2ccc(-c3cncc(S(C)(=O)=O)c3)cn2n1", "=", 316],
  ["CC(C)NS(=O)(=O)c1cncc(-c2ccc3nc(N)nn3c2)c1", "=", 31.6],
  ["CNC(=O)c1cccc(-c2ccc3nc(NC(C)=O)nn3c2)c1", "=", 631],
  ["CNS(=O)(=O)c1cccc(-c2ccc3nc(NC(C)=O)nn3c2)c1", "=", 251],
  ["CC(=O)Nc1nc2ccc(-c3cncc(S(=O)(=O)NCc4ccccc4)c3)cn2n1", "=", 39.8],
  ["CC(=O)Nc1nc2ccc(-c3cncc4ccccc34)cn2n1", "=", 3160],
  ["CC(=O)Nc1nc2ccc(-c3sc(C)nc3C)cn2n1", ">", 12600],
  ["CC(=O)Nc1nc2ccc(-c3cccc(-c4ccccc4)c3)cn2n1", ">", 3980],
  ["CS(=O)(=O)Nc1nc2ccc(-c3cncc(S(C)(=O)=O)c3)cn2n1", ">", 39800],
  ["CC(=O)Nc1nc2ccc(-c3cncnc3)cn2n1", "=", 3980],
  ["CC(=O)Nc1nc2c(C)cc(-c3cncc(S(C)(=O)=O)c3)cn2n1", "=", 100],
  ["CC(=O)Nc1nc2ccc(-c3cccnc3)cn2n1", "=", 251],
  ["CS(=O)(=O)c1cncc(-c2cc(C(F)(F)F)c3nc(N)nn3c2)c1", ">", 100000],
  ["CC(=O)Nc1nc2ccc(-c3cncc(S(C)(=O)=O)c3)c(C)n2n1", "=", 1000],
  ["Nc1nc2ccc(-c3cncc(NS(=O)(=O)c4ccc(Cl)cc4)c3)cn2n1", "=", 6.31],
  ["CC(=O)Nc1nc2ccc(-c3ccc(S(C)(=O)=O)cc3)cn2n1", ">", 100000],
  ["COc1ccc(-c2ccc3nc(NC(C)=O)nn3c2)cc1OC", "=", 39.8],
  ["CC(=O)Nc1nc2ccc(-c3cccc(S(=O)(=O)NCc4ccccc4)c3)cn2n1", "=", 501],
  ["CN(C)c1nc2ccc(-c3cncc(S(C)(=O)=O)c3)cn2n1", "=", 3160],
  ["CC(=O)Nc1nc2ccc(-c3ccncc3)cn2n1", "=", 1580],
  ["COc1ccc(-c2ccc3nc(NC(C)=O)nn3c2)cc1", "=", 1000],
  ["COc1ccccc1-c1ccc2nc(NC(C)=O)nn2c1", "=", 3980],
  ["CNS(=O)(=O)c1ccc(-c2ccc3nc(NC(C)=O)nn3c2)cc1", ">", 50100],
  ["CC(=O)Nc1nc2ccc(-c3cnn(C)c3)cn2n1", "=", 3980],
  ["Nc1nc2ccc(-c3cncc(S(=O)(=O)Nc4ccc(Cl)cc4)c3)cn2n1", "=", 631],
  ["COc1cncc(-c2ccc3nc(NC(C)=O)nn3c2)c1", "=", 63.1],
  ["CC(=O)Nc1nc2cc(C)c(-c3cncc(S(C)(=O)=O)c3)cn2n1", ">", 100000],
  ["CC(=O)Nc1nc2ccc(-c3cccc(NS(C)(=O)=O)c3)cn2n1", "=", 316],
  ["CCCCNS(=O)(=O)c1cccc(-c2ccc3nc(NC(C)=O)nn3c2)c1", "=", 200],
  ["Nc1nc2ccc(-c3cncc(S(=O)(=O)NCC4CC4)c3)cn2n1", "=", 15.8],
  ["CC(=O)N(C)c1nc2ccc(-c3cccc(S(C)(=O)=O)c3)cn2n1", ">", 31600],
  ["COc1cccc(-c2ccc3nc(NC(C)=O)nn3c2)c1", "=", 158],
  ["CC(=O)Nc1nc2ccc(-c3cccc(S(C)(=O)=O)c3)cn2n1", "=", 501],
  ["CC(=O)Nc1nc2ccc(-c3cc(C)c(O)c(C)c3)cn2n1", "=", 2000],
  ["CS(=O)(=O)c1cncc(-c2cc(Cl)c3nc(N)nn3c2)c1", "=", 2000],
  ["COc1ccc(-c2ccc3nc(NC(C)=O)nn3c2)cc1S(=O)(=O)NCc1ccccc1", ">", 100000],
  ["CC(C)(C)S(=O)(=O)c1cncc(-c2ccc3nc(N)nn3c2)c1", "=", 158],
  ["Nc1nc2ccc(-c3cncc(S(=O)(=O)NCc4ccccc4)c3)cn2n1", "=", 251],
  ["CC(=O)Nc1nc2ccc(-c3cncc(CS(N)(=O)=O)c3)cn2n1", "=", 7.94],
  ["CC(C)(C)NS(=O)(=O)c1cncc(-c2cn3nc(N)nc3cc2F)c1", "=", 25100],
  ["CC(=O)Nc1nc2ccc(-c3ccsc3)cn2n1", "=", 398],
  ["CS(=O)(=O)Nc1cccc(-c2ccc3nc(NC(=O)C4CCCCC4)nn3c2)c1", "=", 316]
]}

====

molecular target: Phosphatidylinositol 4,5-bisphosphate 3-kinase catalytic subunit beta isoform (Homo sapiens, UniProt P42338); experiment: Inhibition of PI3Kbeta by high throughput chemoproteomics binding assay
Sequence (P42338 whole entry, canonical isoform): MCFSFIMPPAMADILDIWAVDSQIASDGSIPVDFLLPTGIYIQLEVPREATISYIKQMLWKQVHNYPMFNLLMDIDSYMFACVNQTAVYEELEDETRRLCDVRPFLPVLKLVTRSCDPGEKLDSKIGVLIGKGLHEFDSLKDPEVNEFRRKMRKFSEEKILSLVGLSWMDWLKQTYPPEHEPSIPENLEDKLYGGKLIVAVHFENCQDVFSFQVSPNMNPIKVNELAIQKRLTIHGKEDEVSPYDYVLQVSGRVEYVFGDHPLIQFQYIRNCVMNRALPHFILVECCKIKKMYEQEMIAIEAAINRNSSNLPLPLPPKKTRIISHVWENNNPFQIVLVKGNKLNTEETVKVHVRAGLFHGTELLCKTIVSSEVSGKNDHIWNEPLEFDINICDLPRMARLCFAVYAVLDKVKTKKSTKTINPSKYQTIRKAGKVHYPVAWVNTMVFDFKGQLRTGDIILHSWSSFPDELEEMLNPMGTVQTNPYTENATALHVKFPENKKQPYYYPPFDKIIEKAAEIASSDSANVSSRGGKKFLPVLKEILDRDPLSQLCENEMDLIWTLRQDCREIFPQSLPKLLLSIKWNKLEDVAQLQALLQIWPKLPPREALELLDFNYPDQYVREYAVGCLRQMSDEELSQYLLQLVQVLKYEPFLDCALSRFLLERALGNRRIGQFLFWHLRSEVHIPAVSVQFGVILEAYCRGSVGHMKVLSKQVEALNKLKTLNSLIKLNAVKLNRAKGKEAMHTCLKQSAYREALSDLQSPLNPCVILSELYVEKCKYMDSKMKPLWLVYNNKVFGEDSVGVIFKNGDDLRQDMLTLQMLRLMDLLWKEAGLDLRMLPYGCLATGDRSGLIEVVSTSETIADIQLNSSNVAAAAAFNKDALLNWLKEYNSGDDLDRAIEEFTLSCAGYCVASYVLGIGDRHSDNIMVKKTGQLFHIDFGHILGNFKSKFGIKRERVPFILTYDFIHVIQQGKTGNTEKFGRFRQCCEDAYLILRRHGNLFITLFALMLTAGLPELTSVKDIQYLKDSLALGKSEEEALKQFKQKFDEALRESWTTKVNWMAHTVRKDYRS
Quantity Name: IC50 (µM)

{"columns": ["Smi", "Quantity Name", "Comparator", "Value Observed"],
 "data": [
  ["COc1ccccc1-c1ccc2nc(NC(C)=O)nn2c1", "IC50", ">", 100],
  ["CC(=O)Nc1nc2c(F)cc(-c3cncc(S(C)(=O)=O)c3)cn2n1", "IC50", "=", 20],
  ["CC(=O)Nc1nc2cc(C)c(-c3cncc(S(C)(=O)=O)c3)cn2n1", "IC50", "=", 200],
  ["CS(=O)(=O)c1cncc(-c2cc(Cl)c3nc(N)nn3c2)c1", "IC50", ">", 100],
  ["CC(C)(C)NS(=O)(=O)c1cncc(-c2cc(F)c3nc(N)nn3c2)c1", "IC50", "=", 1.26],
  ["CC(=O)Nc1nc2c(C)cc(-c3cncc(S(C)(=O)=O)c3)cn2n1", "IC50", "=", 20],
  ["CC(C)(C)NS(=O)(=O)c1cncc(-c2cn3nc(N)nc3cc2F)c1", "IC50", ">", 100],
  ["CC(=O)Nc1nc2ccc(-c3cncc(S(C)(=O)=O)c3)c(C)n2n1", "IC50", "=", 25.1],
  ["CC(=O)Nc1nc2ccc(-c3cc(C)c(O)c(C)c3)cn2n1", "IC50", "=", 20]
]}
